assay: Hemolytic activity in RBC (unknown origin) assessed as hemolysis rate 128 times MIC measured for 6 hrs by double dilution method; format: toxicity, cell-based, Erythrocyte; settings: red blood cells (erythrocytes), read-out: Activity
value.kind: hemolysis at 6 h, 128 times MIC

>>> print(df.to_string())
                               smiles_entry  assay_value
0  O=C1c2cccc3c(N/N=C/c4ccc([N+](=O)[O-])o4)ccc(c23)C(=O)N1CCO         < 5%

###

Recorded measurements of MIC, one per entry
tested on: Candida tropicalis; assay: Antifungal activity against Candida tropicalis assessed as inhibition of fungal growth incubated for 24 hrs by CLSI based microbroth dilution method; format: functional
value.kind: MIC (µM)

>>> print(df.to_string())
                               smiles_entry       target_entity  value_kind  assay_value
0  O=C1c2cccc3c(N/N=C/c4c(Cl)cccc4Cl)ccc(c23)C(=O)N1CCO  Candida tropicalis         MIC          150
1  C/C(Cn1c([N+](=O)[O-])cnc1C)=N\Nc1ccc2c3c(cccc13)C(=O)N(CCO)C2=O  Candida tropicalis         MIC         1170
2  CCCCc1nc(Cl)c(/C=N/Nc2ccc3c4c(cccc24)C(=O)N(CCO)C3=O)n1C  Candida tropicalis         MIC          141
3  CCCCc1nc(Cl)c(/C=N/Nc2ccc3c4c(cccc24)C(=O)N(CCO)C3=O)n1CCO  Candida tropicalis         MIC           17
4  CCCCc1nc(Cl)c(/C=N/Nc2ccc3c4c(cccc24)C(=O)N(CCO)C3=O)n1CC1CC1  Candida tropicalis         MIC           32
5  CCCCN1C(=O)c2cccc3c(N/N=C(\C)Cn4c([N+](=O)[O-])cnc4C)ccc(c23)C1=O  Candida tropicalis         MIC         1140
6  O=C1c2cccc3c(N/N=C/c4ccc(O)c([N+](=O)[O-])c4)ccc(c23)C(=O)N1CCO  Candida tropicalis         MIC            5
7  CCCCCN1C(=O)c2cccc3c(N/N=C(\C)Cn4c([N+](=O)[O-])cnc4C)ccc(c23)C1=O  Candida tropicalis         MIC         1110
8  O=C1c2cccc3c(N/N=C/c4cc[nH]c4)ccc(c23)C(=O)N1CCO  Candida tropicalis         MIC           23

###

system: Candida tropicalis; assay: Antifungal activity against Candida tropicalis assessed as inhibition of fungal growth incubated for 24 hrs by CLSI based microbroth dilution method; assay type: functional
Let's look at some compounds and their measured MIC.
value.kind: MIC (µM)

                                smiles_entry  assay_value
 0  C#CCn1c(CCCC)nc(Cl)c1/C=N/Nc1ccc2c3c(cccc13)C(=O)N(CCO)C2=O            2
 1  O=C1c2cccc3c(N/N=C/c4ncc[nH]4)ccc(c23)C(=O)N1CCO           92
 2  CCCCCCCN1C(=O)c2cccc3c(N/N=C(\C)Cn4c([N+](=O)[O-])cnc4C)ccc(c23)C1=O         1040
 3  O=C1c2cccc3c(N/N=C/c4cc(Cl)ccc4O)ccc(c23)C(=O)N1CCO          313
 4        NNc1ccc2c3c(cccc13)C(=O)N(CCO)C2=O          118
 5  C#CCN1C(=O)c2cccc3c(N/N=C(\C)Cn4c([N+](=O)[O-])cnc4C)ccc(c23)C1=O         1180
 6  CCCCc1nc(Cl)c(/C=N/Nc2ccc3c4c(cccc24)C(=O)N(CCO)C3=O)n1CCN1CCOCC1           29
 7  CCCCc1nc(Cl)c(/C=N/Nc2ccc3c4c(cccc24)C(=O)N(CCO)C3=O)n1CCC           67
 8  COc1ccc(N2C(=O)c3cccc4c(N/N=C(\C)Cn5c([N+](=O)[O-])cnc5C)ccc(c34)C2=O)cc1          514
 9  C=CCN1C(=O)c2cccc3c(N/N=C(\C)Cn4c([N+](=O)[O-])cnc4C)ccc(c23)C1=O         1190
10  C/C(Cn1c([N+](=O)[O-])cnc1C)=N\Nc1ccc2c3c(cccc13)C(=O)N(c1ccc(Cl)cc1Cl)C2=O          238
11  NN1C(=O)c2cccc3c(N/N=C/c4ccc([N+](=O)[O-])o4)ccc(c23)C1=O            5
12  CCCCc1nc(Cl)c(/C=N/Nc2ccc3c4c(cccc24)C(=O)N(CCO)C3=O)n1Cc1ccc(F)cc1           58
13  O=C1c2cccc3c(N/N=C/c4ccccn4)ccc(c23)C(=O)N1CCO          711
14  CCCCc1nc(Cl)c(/C=N/Nc2ccc3c4c(cccc24)C(=O)N(CCO)C3=O)n1Cc1ccc(Cl)cc1           28
15  CCN1C(=O)c2cccc3c(N/N=C(\C)Cn4c([N+](=O)[O-])cnc4C)ccc(c23)C1=O         1220
16  O=C1c2cccc3c(N/N=C/c4cccs4)ccc(c23)C(=O)N1CCO          351
17  O=C1c2cccc3c(N/N=C/c4ccc(O)cc4O)ccc(c23)C(=O)N1CCO          655
